For each of the compounds below, state its pIC50.
Biological target: recombinant human ADAM17 (Homo sapiens)
Construct: purchased R&D Systems Inc
Sequence (P78536 215-824): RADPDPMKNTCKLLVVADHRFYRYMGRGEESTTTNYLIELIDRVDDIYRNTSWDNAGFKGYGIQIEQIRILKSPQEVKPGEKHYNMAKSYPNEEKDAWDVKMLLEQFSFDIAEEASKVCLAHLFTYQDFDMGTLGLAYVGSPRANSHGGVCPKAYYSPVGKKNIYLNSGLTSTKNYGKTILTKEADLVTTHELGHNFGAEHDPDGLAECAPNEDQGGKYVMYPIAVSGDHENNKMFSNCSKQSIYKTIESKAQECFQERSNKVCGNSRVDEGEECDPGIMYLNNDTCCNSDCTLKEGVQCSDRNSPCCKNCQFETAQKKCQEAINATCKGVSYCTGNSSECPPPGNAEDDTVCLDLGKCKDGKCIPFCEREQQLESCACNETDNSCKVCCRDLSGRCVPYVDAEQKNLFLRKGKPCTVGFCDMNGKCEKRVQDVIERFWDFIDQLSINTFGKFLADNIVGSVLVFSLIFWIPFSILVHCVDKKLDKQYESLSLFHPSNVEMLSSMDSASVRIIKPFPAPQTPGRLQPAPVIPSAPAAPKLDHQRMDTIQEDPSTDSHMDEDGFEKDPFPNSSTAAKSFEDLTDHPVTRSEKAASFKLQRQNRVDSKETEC
Test: Selectivity profile, ADAM17
Format: biochemical
One number for each entry, as −log10 of the molar value.

CNC(=O)[C@@H](NC(=O)[C@@H](CC(=O)NO)CC(C)C)C(C)(C)C = 7.60

Here's the next entry for you.
Recorded result, CNC(=O)[C@@H](NC(=O)[C@H](CC(=O)NO)CC(C)C)C(C)(C)C , pIC50: 4.10

----------
Biological target: human MMP-9 (Homo sapiens, UniProt P14780)
Construct: purchased Calbiochem
Sequence (P14780 94-707): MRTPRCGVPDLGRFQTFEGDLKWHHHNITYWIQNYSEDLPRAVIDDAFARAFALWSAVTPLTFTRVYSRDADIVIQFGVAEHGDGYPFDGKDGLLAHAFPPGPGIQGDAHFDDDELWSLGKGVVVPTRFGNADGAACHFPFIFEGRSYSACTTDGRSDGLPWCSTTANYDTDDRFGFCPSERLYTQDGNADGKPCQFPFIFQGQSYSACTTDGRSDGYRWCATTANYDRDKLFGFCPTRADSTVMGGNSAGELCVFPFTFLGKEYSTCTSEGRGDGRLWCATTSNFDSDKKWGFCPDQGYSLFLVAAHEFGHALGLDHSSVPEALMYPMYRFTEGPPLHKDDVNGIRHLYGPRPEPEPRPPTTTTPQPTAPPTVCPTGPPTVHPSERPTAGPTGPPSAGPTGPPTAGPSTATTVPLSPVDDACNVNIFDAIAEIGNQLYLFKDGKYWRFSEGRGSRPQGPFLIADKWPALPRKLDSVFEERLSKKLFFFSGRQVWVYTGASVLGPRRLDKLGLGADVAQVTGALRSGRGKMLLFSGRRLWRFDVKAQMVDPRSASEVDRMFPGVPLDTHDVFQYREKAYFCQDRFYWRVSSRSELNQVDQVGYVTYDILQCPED
Test: MMP enzyme inhibition assay, MMP-9
Format: biochemical
Conditions: pH 7.5, 37° C., 1 hour
For each of the compounds below, state its pIC50.
Answers are plain numbers, as −log10 of the molar value.

Worked cases, answers included:
CC(C)C[C@@H](C(=O)N[C@H](C(=O)Nc1ccccn1)C(C)(C)C)[C@H](O)C(=O)NO = 8.39
CNC(=O)[C@H](CCc1ccccc1)NC(=O)[C@@H](CC(=O)NO)CC(C)C = 8.23
CNC(=O)[C@@H](NC(=O)[C@@H](CC(=O)NO)CC(C)C)C(C)(C)C = 8.44
CC(C)C[C@@H](C(=O)N[C@H](C(=O)N(C)C)C(C)(C)C)[C@H](O)C(=O)NO = 7.52

Here's the next entry for you.
pIC50 on human MMP-9 (Homo sapiens, UniProt P14780) for CNC(=O)C(CCc1ccccc1)NC(=O)C(CC(=O)NO)CC(C)C (centres unmarked) is 8.72

----------
Biological target: UniProtKB P03956
Sequence (P03956 100-469): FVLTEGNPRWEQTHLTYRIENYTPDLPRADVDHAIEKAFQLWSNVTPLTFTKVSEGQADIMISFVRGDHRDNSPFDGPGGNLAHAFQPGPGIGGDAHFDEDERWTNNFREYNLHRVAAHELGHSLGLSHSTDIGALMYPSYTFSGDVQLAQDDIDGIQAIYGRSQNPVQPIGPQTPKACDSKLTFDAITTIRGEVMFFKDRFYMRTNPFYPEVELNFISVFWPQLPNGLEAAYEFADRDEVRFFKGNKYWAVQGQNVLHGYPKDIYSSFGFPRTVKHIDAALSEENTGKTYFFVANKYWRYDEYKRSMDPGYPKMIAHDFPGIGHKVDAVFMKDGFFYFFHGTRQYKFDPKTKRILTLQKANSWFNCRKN
For each of the compounds below, state its pIC50.
Answers are plain numbers, as −log10 of the molar value.

Worked cases, answers included:
CNC(=O)C(CCc1ccccc1)NC(=O)C(CC(=O)NO)CC(C)C (centres unmarked) = 8.25
CC(C)C[C@@H](C(=O)N[C@H](C(=O)N(C)C)C(C)(C)C)[C@H](O)C(=O)NO = 7.96

Okay, here is my list. What is pIC50 for each of these?
1. CNC(=O)[C@@H](NC(=O)[C@@H](CC(=O)NO)CC(C)C)C(C)(C)C
2. CNC(=O)[C@@H](NC(=O)[C@H](CC(=O)NO)CC(C)C)C(C)(C)C

-- reply
1: 8.55; 2: 5.64

----------
Target: purified aureolysin type II (Staphylococcus aureus)
Sequence (P81177 1-509): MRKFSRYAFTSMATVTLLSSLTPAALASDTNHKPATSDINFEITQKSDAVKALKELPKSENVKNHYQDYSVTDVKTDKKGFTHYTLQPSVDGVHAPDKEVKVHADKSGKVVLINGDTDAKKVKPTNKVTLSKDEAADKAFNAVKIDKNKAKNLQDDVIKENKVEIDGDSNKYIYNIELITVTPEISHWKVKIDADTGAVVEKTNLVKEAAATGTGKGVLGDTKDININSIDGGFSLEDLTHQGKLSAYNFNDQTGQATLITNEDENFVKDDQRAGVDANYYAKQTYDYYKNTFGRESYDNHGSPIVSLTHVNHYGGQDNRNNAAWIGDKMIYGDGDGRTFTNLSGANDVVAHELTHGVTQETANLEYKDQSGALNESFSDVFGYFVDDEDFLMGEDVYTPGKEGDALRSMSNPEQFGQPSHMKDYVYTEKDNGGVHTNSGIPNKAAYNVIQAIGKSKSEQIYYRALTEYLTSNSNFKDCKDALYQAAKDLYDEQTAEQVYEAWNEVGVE
Assay: Aureolysin enzyme inhibition assay, type II
Type: biochemical
Conditions: read-out: IC50 value Aureolysin type II; pH 6.8, 37° C., 1 hour
Quantity: pIC50
Give bare numbers, as −log10 of the molar value.

Recorded result, COc1ccc(S(=O)(=O)N(CC(=O)NO)CC(C)C)cc1 [Compound 14] , pIC50: 5.60

----------
Molecular target: purified aureolysin type I (Staphylococcus aureus)
For each of the molecules below, state its IC50.
One number for each entry, in nM.

Worked cases, answers included:
CO[C@H](C(=O)NO)[C@@H](CC(C)C)C(=O)N[C@H](C(=O)Nc1ccccn1)C(C)(C)C = 2200
CNC(=O)[C@H](CCc1ccccc1)NC(=O)[C@@H](CC(=O)NO)CC(C)C = 1200
CC(C)C[C@@H](C(=O)N[C@H](C(=O)Nc1ccccn1)C(C)(C)C)[C@H](O)C(=O)NO = 1500

Here's the next entry for you.
Recorded result, COc1ccc(S(=O)(=O)N(CC(=O)NO)CC(C)C)cc1 , IC50: 1000

----------
Biological target: human MMP-2 (Homo sapiens)
Sequence (P08253 110-660): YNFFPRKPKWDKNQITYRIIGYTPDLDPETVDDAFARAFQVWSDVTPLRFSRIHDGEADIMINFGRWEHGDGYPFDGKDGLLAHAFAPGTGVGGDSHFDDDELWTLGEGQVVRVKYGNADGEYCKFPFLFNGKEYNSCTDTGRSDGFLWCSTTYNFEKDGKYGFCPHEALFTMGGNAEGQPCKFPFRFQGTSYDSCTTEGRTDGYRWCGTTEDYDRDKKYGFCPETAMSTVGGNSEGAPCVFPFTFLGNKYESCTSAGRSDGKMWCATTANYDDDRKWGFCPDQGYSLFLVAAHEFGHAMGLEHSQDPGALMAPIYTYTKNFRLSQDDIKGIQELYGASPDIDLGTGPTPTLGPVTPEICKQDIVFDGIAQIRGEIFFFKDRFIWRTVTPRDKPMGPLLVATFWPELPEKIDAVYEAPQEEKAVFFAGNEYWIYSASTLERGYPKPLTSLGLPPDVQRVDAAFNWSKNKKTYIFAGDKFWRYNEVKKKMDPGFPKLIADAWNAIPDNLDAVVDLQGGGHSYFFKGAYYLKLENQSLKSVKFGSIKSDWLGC
# binning rule on IC50: lower = under 2 nM, middle = from 2 nM up to 8 nM, upper = 8 nM and over

CNC(=O)[C@@H](NC(=O)[C@@H](CC(=O)NO)CC(C)C)C(C)(C)C = lower

-- ask Band for the recorded IC50 of COc1ccc(S(=O)(=O)N(CC(=O)NO)CC(C)C)cc1 ?
-- reply middle

-- ask Band for the recorded IC50 of CNC(=O)[C@H](CCc1ccccc1)NC(=O)[C@@H](CC(=O)NO)CC(C)C ?
-- reply middle

----------
For each of the molecules below, state its pIC50.
Molecular target: purified aureolysin type I (Staphylococcus aureus, UniProt P81177)
Numbers only, as −log10 of the molar value.

CNC(=O)[C@@H](NC(=O)[C@H](CC(=O)NO)CC(C)C)C(C)(C)C = 5.89
CNC(=O)[C@H](Cc1c[nH]c2ccccc12)NC(=O)[C@@H](CC(=O)NO)CC(C)C = 6.59

Okay, here is my list. What is pIC50 for each of these?
1. CNC(=O)[C@H](CCc1ccccc1)NC(=O)[C@H](CC(=O)NO)CC(C)C
2. CC(C)C[C@@H](C(=O)N[C@H](C(=O)N(C)C)C(C)(C)C)[C@H](O)C(=O)NO
3. CNC(=O)C(CCc1ccccc1)NC(=O)C(CC(=O)NO)CC(C)C (stereo not shown)
4. CC(C)C[C@H](NP(=O)(O)O[C@@H]1O[C@@H](C)[C@H](O)[C@@H](O)[C@H]1O)C(=O)N[C@@H](Cc1c[nH]c2ccccc12)C(=O)O
5. CNC(=O)[C@@H](NC(=O)[C@@H](CC(=O)NO)CC(C)C)C(C)(C)C

-- reply
[7.24, 4.57, 6.48, 5.55, 5.89]

----------
Molecular target: human MMP-8 (Homo sapiens, UniProt P22894)
Sequence (P22894 101-467): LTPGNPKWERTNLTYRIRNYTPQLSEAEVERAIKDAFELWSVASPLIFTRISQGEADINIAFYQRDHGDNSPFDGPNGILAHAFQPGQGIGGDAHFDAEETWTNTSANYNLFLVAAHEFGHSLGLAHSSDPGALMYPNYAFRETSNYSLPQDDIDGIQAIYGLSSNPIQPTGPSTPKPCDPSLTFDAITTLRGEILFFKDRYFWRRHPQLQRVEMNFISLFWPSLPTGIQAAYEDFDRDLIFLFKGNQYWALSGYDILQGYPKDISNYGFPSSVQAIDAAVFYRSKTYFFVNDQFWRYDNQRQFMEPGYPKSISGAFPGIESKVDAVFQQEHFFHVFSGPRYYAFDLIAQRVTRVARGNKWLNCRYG
pIC50: −log10 of the molar value.
Kindly return met if reported pIC50 is no lower than 8; return not met if it is lower.

Known results for molecules:
CNC(=O)[C@@H](NC(=O)[C@H](CC(=O)NO)CC(C)C)C(C)(C)C = not met
CNC(=O)[C@H](CCc1ccccc1)NC(=O)[C@@H](CC(=O)NO)CC(C)C = met
CC(C)C[C@@H](C(=O)N[C@H](C(=O)N(C)C)C(C)(C)C)[C@H](O)C(=O)NO = met
CO[C@H](C(=O)NO)[C@@H](CC(C)C)C(=O)N[C@H](C(=O)Nc1ccccn1)C(C)(C)C = met
CNC(=O)[C@@H](NC(=O)[C@@H](CC(=O)NO)CC(C)C)C(C)(C)C = met

-- ask API: above_or_equal(metric=pIC50, cutoff=8) for item CNC(=O)[C@H](CCc1ccccc1)NC(=O)[C@H](CC(=O)NO)CC(C)C
-- reply not met

-- ask API: above_or_equal(metric=pIC50, cutoff=8) for item CNC(=O)C(CCc1ccccc1)NC(=O)C(CC(=O)NO)CC(C)C (stereo not drawn)
-- reply met

-- ask API: above_or_equal(metric=pIC50, cutoff=8) for item COc1ccc(S(=O)(=O)N(CC(=O)NO)CC(C)C)cc1
-- reply not met

-- ask API: above_or_equal(metric=pIC50, cutoff=8) for item CC(C)C[C@@H](C(=O)N[C@H](C(=O)Nc1ccccn1)C(C)(C)C)[C@H](O)C(=O)NO
-- reply met

----------
Molecular target: aureolysin (Staphylococcus aureus, UniProt P81177)
Quantity: IC50
Reply with a number, then the unit it belongs to.

IC50 on aureolysin (Staphylococcus aureus, UniProt P81177) for CNC(=O)[C@@H](NC(=O)[C@H](CC(=O)NO)CC(C)C)C(C)(C)C is 2400 nM

----------
Biological target: metalloprotease (aureolysin) activity in Staphylococcus aureus 8325-4 culture supernatants (Staphylococcus aureus)
Construct: 4 μl S. aureus culture supernatant; endogenous in cells; host or cells: Staphylococcus aureus 8325-4 (culture supernatant)
Assay: Metalloprotease activity in S. aureus culture supernatants
Type: biochemical
Quantity: pIC50
One number for each entry, as −log10 of the molar value.

Worked cases, answers included:
COc1ccc(S(=O)(=O)N(CC(=O)NO)CC(C)C)cc1 = 5.44
CC(C)C[C@@H](C(=O)N[C@H](C(=O)Nc1ccccn1)C(C)(C)C)[C@H](O)C(=O)NO = 5.54
CNC(=O)[C@@H](NC(=O)[C@H](CC(=O)NO)CC(C)C)C(C)(C)C = 5.37
CNC(=O)[C@@H](NC(=O)[C@@H](CC(=O)NO)CC(C)C)C(C)(C)C = 5.43
CNC(=O)C(CCc1ccccc1)NC(=O)C(CC(=O)NO)CC(C)C (centres unmarked) = 6.16
CC(C)C[C@H](NP(=O)(O)O[C@@H]1O[C@@H](C)[C@H](O)[C@@H](O)[C@H]1O)C(=O)N[C@@H](Cc1c[nH]c2ccccc12)C(=O)O = 5.48

Okay, here is my list. What is pIC50 for each of these?
1. CC(C)C[C@@H](C(=O)N[C@H](C(=O)N(C)C)C(C)(C)C)[C@H](O)C(=O)NO
2. CNC(=O)[C@H](CCc1ccccc1)NC(=O)[C@H](CC(=O)NO)CC(C)C

-- reply
1: 4.36; 2: 7.02
